What Kd was measured for each of the following?
SYSTEM_TESTED: T1, human IL-6 (human, UniProt P05231 30-212)
T1 construct: IL-6 flowed over captured antibodies
RUN_DESCRIPTION: SPR Biacore, supernatant Ab on Protein A chip, 37 C
Write the value in nM as a bare number.

Exercise: I would be grateful if you could share the reported Kd for anti-IL-6 antibody, heavy chain I51F, G66D / light chain M32L, M50D, N52S, M88Q (antibody, IgG1, V domains shown, Full IgG1 (Expi293); VL = variant III) VH: EVQLVESGGGLVQPGGSLRLSCAASGFTFSPFAMSWVRQAPGKGLEWVAKFSPGGSWTYYSDTVTDRFTFSLDTSKSTAYLQMNSLRAEDTAVYYCARQLWGYYALDIWGQGTLVTVSS VL: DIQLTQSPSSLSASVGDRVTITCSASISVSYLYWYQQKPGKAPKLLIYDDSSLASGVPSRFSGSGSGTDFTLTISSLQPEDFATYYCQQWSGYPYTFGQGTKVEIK .
Key: 4.45

Exercise: Can you handle anti-IL-6 antibody, heavy chain T65V, G66D / light chain M32L, M50D, N52S, M88Q (antibody, IgG1, V domains shown, Full IgG1 (Expi293); VL = variant III) VH: EVQLVESGGGLVQPGGSLRLSCAASGFTFSPFAMSWVRQAPGKGLEWVAKISPGGSWTYYSDTVVDRFTFSLDTSKSTAYLQMNSLRAEDTAVYYCARQLWGYYALDIWGQGTLVTVSS VL: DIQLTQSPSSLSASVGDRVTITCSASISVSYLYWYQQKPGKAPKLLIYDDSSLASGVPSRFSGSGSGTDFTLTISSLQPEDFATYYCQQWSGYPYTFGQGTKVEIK next?
Key: 0.281

Exercise: Can you handle anti-IL-6 antibody, heavy chain I51A, G66D / light chain M32L, M50D, N52S, M88Q (antibody, IgG1, V domains shown, Full IgG1 (Expi293); VL = variant III) VH: EVQLVESGGGLVQPGGSLRLSCAASGFTFSPFAMSWVRQAPGKGLEWVAKASPGGSWTYYSDTVTDRFTFSLDTSKSTAYLQMNSLRAEDTAVYYCARQLWGYYALDIWGQGTLVTVSS VL: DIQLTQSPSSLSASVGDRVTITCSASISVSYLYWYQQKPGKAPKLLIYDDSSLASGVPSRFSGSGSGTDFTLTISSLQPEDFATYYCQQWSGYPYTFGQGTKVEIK next?
Key: 0.559
